The listing below reports CC50 for compounds tested on HT29.
Give just the numeric value; µM need not be written.

Examples from the recorded data:
{"smilesStructure": "C=C1C(=O)O[C@H]2[C@H]1CC/C(COC(=O)N1CCC(F)(F)CC1)=C\\CC[C@@]1(C)O[C@@H]21", "outputUnit": "µM", "CC50": 40.3}
{"smilesStructure": "C=C1C(=O)O[C@H]2[C@H]1CC/C(COC(=O)NC)=C\\CC[C@@]1(C)O[C@@H]21", "outputUnit": "µM", "CC50": 57}
{"smilesStructure": "C=C1C(=O)O[C@H]2[C@H]1CC/C(COC(=O)N1CCN(C)CC1)=C\\CC[C@@]1(C)O[C@@H]21", "outputUnit": "µM", "CC50": 62}
{"smilesStructure": "C=C1C(=O)O[C@H]2[C@H]1CC/C(COC(=O)CCC(=O)N1CCC(C)CC1)=C\\CC[C@@]1(C)O[C@@H]21", "outputUnit": "µM", "CC50": 44.5}

Pending compound:
// fetch CC50 for C=C1C(=O)O[C@H]2[C@H]1CC/C(COC(=O)NCCN1CCCCC1)=C\CC[C@@]1(C)O[C@@H]21 ; system: HT29 50.4

---

test system: SNB-75; experiment: panel of 60 human tumor cell lines, growth inhibition (CNS Cancer); conditions: Homo sapiens, SNB-75, read-out: LC50
Consider the following molecules and their measured CC50 readings.
Give just the numeric value; µM need not be written.

Examples from the recorded data:
{"smilesStructure": "C=C1C(=O)O[C@H]2[C@H]1CC/C(COC(=O)Nc1n[nH]c(SC)n1)=C\\CC[C@@]1(C)O[C@@H]21", "measuredOn": "SNB-75", "reportedEndpoint": "CC50", "outputUnit": "µM", "numericReadout": 33.4}
{"smilesStructure": "C=C1C(=O)O[C@H]2[C@H]1CC/C(COC(=O)OCCN(C)C)=C\\CC[C@@]1(C)O[C@@H]21", "measuredOn": "SNB-75", "reportedEndpoint": "CC50", "outputUnit": "µM", "numericReadout": 50.7}

Supply recorded CC50 for C=C1C(=O)O[C@H]2[C@H]1CC/C(COC(=O)NCCc1ccccn1)=C\CC[C@@]1(C)O[C@@H]21 here. 48.4

---

test system: MDA-MB-231/ATCC; test: panel of 60 human tumor cell lines, growth inhibition (Breast Cancer); settings: Homo sapiens, MDA-MB-231
reportedEndpoint: GI50
A complete answer gives the number followed by the unit.

{"smilesStructure": "C=C1C(=O)O[C@H]2[C@H]1CC/C(COC(=O)NCCN1CCOCC1)=C\\CC[C@@]1(C)O[C@@H]21", "GI50": "13.7 µM"}

// fetch GI50 for C=C1C(=O)O[C@H]2[C@H]1CC/C(COC(=O)Nc1n[nH]c(SC)n1)=C\CC[C@@]1(C)O[C@@H]21 ; system: MDA-MB-231/ATCC 2.93 µM

// fetch GI50 for C=C1C(=O)O[C@H]2[C@H]1CC/C(COC(=O)CCC(=O)NCc1ccc(Cl)nc1)=C\CC[C@@]1(C)O[C@@H]21 ; system: MDA-MB-231/ATCC 6.19 µM

// fetch GI50 for C=C1C(=O)O[C@H]2[C@H]1CC/C(COC(=O)OCCCN1CCCCC1)=C\CC[C@@]1(C)O[C@@H]21 ; system: MDA-MB-231/ATCC 3.73 µM

---

Consider the following compounds and their measured Percent Growth readings.
test system: SR; assay: panel of 60 human tumor cell lines, growth inhibition (Leukemia); conditions: Log10 Concentration −8.0
Give just the numeric value; % need not be written.

{"compound": "C=C1C(=O)O[C@H]2[C@H]1CC/C(COC(=O)NCCc1ccccn1)=C\\CC[C@@]1(C)O[C@@H]21 [JVM 61]", "measuredOn": "SR", "reportedEndpoint": "Percent Growth", "numericReadout": 99}
{"compound": "C=C1C(=O)O[C@H]2[C@H]1CC/C(COC(=O)NCCN1CCCCC1)=C\\CC[C@@]1(C)O[C@@H]21 [JVM 2-13]", "measuredOn": "SR", "reportedEndpoint": "Percent Growth", "numericReadout": 118}
{"compound": "C=C1C(=O)O[C@H]2[C@H]1CC/C(COC(=O)CCC(=O)NCc1ccc(Cl)nc1)=C\\CC[C@@]1(C)O[C@@H]21 [JVM 96]", "measuredOn": "SR", "reportedEndpoint": "Percent Growth", "numericReadout": 84}
{"compound": "C=C1C(=O)O[C@H]2[C@H]1CC/C(COC(=O)N1CCN(C)CC1)=C\\CC[C@@]1(C)O[C@@H]21 [JVM 2-44]", "measuredOn": "SR", "reportedEndpoint": "Percent Growth", "numericReadout": 91}

Pending compound:
Supply recorded Percent Growth for C=C1C(=O)O[C@H]2[C@H]1CC/C(COC(=O)NCCO)=C\CC[C@@]1(C)O[C@@H]21 [JVM 2-50] here. 100

---

tested on: HS 578T; assay: panel of 60 human tumor cell lines, growth inhibition (Breast Cancer); conditions: HS 578T; Log10 Concentration −7.0
Consider the following compounds and their measured Percent Growth readings.
Give just the numeric value; % need not be written.

Examples from the recorded data:
{"smilesStructure": "C=C1C(=O)O[C@H]2[C@H]1CC/C(COC(=O)NC)=C\\CC[C@@]1(C)O[C@@H]21", "Percent Growth [%]": 92}
{"smilesStructure": "C=C1C(=O)O[C@H]2[C@H]1CC/C(COC(=O)N1CCC(F)(F)CC1)=C\\CC[C@@]1(C)O[C@@H]21", "Percent Growth [%]": 93}

Supply recorded Percent Growth for C=C1C(=O)O[C@H]2[C@H]1CC/C(COC(=O)CCC(=O)N1CCC(C)CC1)=C\CC[C@@]1(C)O[C@@H]21 here. 92

Supply recorded Percent Growth for C=C1C(=O)O[C@H]2[C@H]1CC/C(COC(=O)NCCO)=C\CC[C@@]1(C)O[C@@H]21 here. 88

Supply recorded Percent Growth for C=C1C(=O)O[C@H]2[C@H]1CC/C(COC(=O)NCCc1ccccn1)=C\CC[C@@]1(C)O[C@@H]21 here. 96

---

tested on: HT29; test: panel of 60 human tumor cell lines, growth inhibition (Colon Cancer); conditions: HT29; Log10 Concentration −6.0
Consider the following compounds and their measured Percent Growth readings.
A complete answer gives the number followed by the unit.

Examples from the recorded data:
{"smilesStructure": "C=C1C(=O)O[C@H]2[C@H]1CC/C(COC(=O)NCCO)=C\\CC[C@@]1(C)O[C@@H]21", "measuredOn": "HT29", "reportedEndpoint": "Percent Growth", "result": "109%"}
{"smilesStructure": "C=C1C(=O)O[C@H]2[C@H]1CC/C(COC(=O)OCCN(C)C)=C\\CC[C@@]1(C)O[C@@H]21", "measuredOn": "HT29", "reportedEndpoint": "Percent Growth", "result": "98%"}
{"smilesStructure": "C=C1C(=O)O[C@H]2[C@H]1CC/C(COC(=O)NCCCCCCO)=C\\CC[C@@]1(C)O[C@@H]21", "measuredOn": "HT29", "reportedEndpoint": "Percent Growth", "result": "102%"}

Supply recorded Percent Growth for C=C1C(=O)O[C@H]2[C@H]1CC/C(COC(=O)N1CCC(F)(F)CC1)=C\CC[C@@]1(C)O[C@@H]21 here. 102%

---

system: A498; test: panel of 60 human tumor cell lines, growth inhibition (Renal Cancer); conditions: A498; Log10 Concentration −5.0
Consider the following compounds and their measured Percent Growth readings.
Give just the numeric value; % need not be written.

Examples from the recorded data:
{"smilesStructure": "C=C1C(=O)O[C@H]2[C@H]1CC/C(COC(=O)NCCN1CCCCC1)=C\\CC[C@@]1(C)O[C@@H]21", "measuredOn": "A498", "reportedEndpoint": "Percent Growth", "numericReadout": 61}
{"smilesStructure": "C=C1C(=O)O[C@H]2[C@H]1CC/C(COC(=O)NCCO)=C\\CC[C@@]1(C)O[C@@H]21", "measuredOn": "A498", "reportedEndpoint": "Percent Growth", "numericReadout": 58}
{"smilesStructure": "C=C1C(=O)O[C@H]2[C@H]1CC/C(COC(=O)CCC(=O)NCc1ccc(Cl)nc1)=C\\CC[C@@]1(C)O[C@@H]21", "measuredOn": "A498", "reportedEndpoint": "Percent Growth", "numericReadout": 74}

Pending compound:
Supply recorded Percent Growth for C=C1C(=O)O[C@H]2[C@H]1CC/C(COC(=O)CCC(=O)N1CCC(C)CC1)=C\CC[C@@]1(C)O[C@@H]21 here. 29

---

Consider the following molecules and their measured CC50 readings.
tested on: M14; assay: panel of 60 human tumor cell lines, growth inhibition (Melanoma); settings: Homo sapiens, M14, read-out: LC50
Give just the numeric value; µM need not be written.

Examples from the recorded data:
{"smilesStructure": "C=C1C(=O)O[C@H]2[C@H]1CC/C(COC(=S)n1ccnc1)=C\\CC[C@@]1(C)O[C@@H]21", "measuredOn": "M14", "CC50 (µM)": 89.2}
{"smilesStructure": "C=C1C(=O)O[C@H]2[C@H]1CC/C(COC(=O)CCC(=O)NCc1ccc(Cl)nc1)=C\\CC[C@@]1(C)O[C@@H]21", "measuredOn": "M14", "CC50 (µM)": 50.3}
{"smilesStructure": "C=C1C(=O)O[C@H]2[C@H]1CC/C(COC(=O)OCCCN1CCCCC1)=C\\CC[C@@]1(C)O[C@@H]21", "measuredOn": "M14", "CC50 (µM)": 41.1}

Supply recorded CC50 for C=C1C(=O)O[C@H]2[C@H]1CC/C(COC(=O)NCCCCCCO)=C\CC[C@@]1(C)O[C@@H]21 here. 46.7

Attribution: patent US9469650B2
